# EXPERIMENTAL_SYSTEM: PCSK9 (Homo sapiens (Human), UniProt Q8NBP7)
# Sequence (Q8NBP7 153-692): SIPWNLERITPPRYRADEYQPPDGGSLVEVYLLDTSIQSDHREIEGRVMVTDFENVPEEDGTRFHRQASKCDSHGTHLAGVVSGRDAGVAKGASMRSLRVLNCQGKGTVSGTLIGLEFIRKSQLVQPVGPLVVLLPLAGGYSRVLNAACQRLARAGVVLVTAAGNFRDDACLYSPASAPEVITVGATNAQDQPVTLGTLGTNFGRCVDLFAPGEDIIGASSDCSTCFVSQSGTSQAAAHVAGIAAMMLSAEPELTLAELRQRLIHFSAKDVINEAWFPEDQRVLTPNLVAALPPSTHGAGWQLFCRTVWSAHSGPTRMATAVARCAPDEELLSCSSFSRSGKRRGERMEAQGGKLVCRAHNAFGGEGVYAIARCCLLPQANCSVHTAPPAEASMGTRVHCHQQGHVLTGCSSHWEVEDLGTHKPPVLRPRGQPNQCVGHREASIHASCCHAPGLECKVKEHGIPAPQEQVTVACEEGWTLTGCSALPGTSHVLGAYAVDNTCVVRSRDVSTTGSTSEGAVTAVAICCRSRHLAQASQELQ
# EXPERIMENT_NOTES: PCSK9 Alexa FRET Plus assay (displacement of AlexaFluor647 tagged cyclic peptide Reagent B)
# Assay type: binding
# TEST_CONTEXT: Alexa FRET Plus, 0.5 nM PCSK9, 960 nM AF cyclic peptide Reagent B; read-out: IC50
Starred links: 1 amine or outer side, 2 acyl side, 3 side chain; linkers in the order of their positions; H or OH if unused. Positions of bridges follow the written chain, without caps; N, C: chain ends. Non-standard residues stand in square brackets, D forms with d. Residues, ends and D or L forms follow the SMILES beside them. ξ: configuration not given here. *: point of attachment. Phe(3-CH2NH2) = O=C([C@H](Cc1cccc(CN[*:3])c1)N[*:1])[*:2]; NHCH2(1,3-C6H4)CH2CO = O=C(Cc1cccc(CN[*:1])c1)[*:2]; Ala(imidazol-2-yl) = N[C@@H](Cc1ncc[nH]1)C(=O)O; Trp(5-F) = N[C@@H](Cc1c[nH]c2ccc(F)cc12)C(=O)O; Phe(4-CH2NH2) = NCc1ccc(C[C@H](N)C(=O)O)cc1; Pro(cis-4-F) = O=C(O)[C@@H]1C[C@H](F)CN1; Nle(6-COOH) = N[C@@H](CCCCC(=O)O)C(=O)O; X4 = O=C(CCSCc1cccc(CSCCN[*:1])c1)[*:2]; Propanoyl(3,3,3-F3) = O=C(CC(F)(F)F)*; mXylylene = c1cc(C[*:1])cc(C[*:2])c1; AEF = NCCOc1ccc(C[C@H](N)C(=O)O)cc1; d(aThr) = C[C@@H](O)[C@@H](N)C(=O)O; Adipoyl = O=C(CCCCC(=O)[*:2])[*:1]; Glutaryl = O=C(CCCC(=O)[*:2])[*:1]; X8 = Clc1cc(C[*:1])cc(C[*:2])c1; αMeP = C[C@@]1(C(=O)O)CCCN1; ξD = NC(CC(=O)O)C(=O)O; Mpa = O=C(O)CCS
PROPERTY_MEASURED: IC50

>>> experimental_result("COc1ccc(C[C@@H]2NC(=O)[C@@H]([C@@H](C)O)NC(=O)[C@H](CCCCC(=O)O)NC(=O)[C@H](Cc3c[nH]c4ccc(F)cc34)NC(=O)[C@H](Cc3ccc(CN)cc3)NC(=O)[C@@H](C)NC(=O)[C@H](C)NC(=O)CCSCc3cccc(c3)CSCCNC(=O)[C@]3(C)CCCN3C2=O)cc1 [Compound 385] (cyclo(A[dA][Phe(4-CH2NH2)][Trp(5-F)][Nle(6-COOH)][d(aThr)]Y(Me)[αMeP][X4]))")
"0.1 to 100 nM"
>>> experimental_result("COc1ccc(C[C@@H]2NC(=O)[C@H](Cc3cnc[nH]3)NC(=O)[C@H](CC(=O)O)NC(=O)[C@H](Cc3c[nH]c4ccc(F)cc34)NC(=O)[C@H](Cc3c[nH]c4ccc(F)cc34)NC(=O)[C@@H](C)NC(=O)Cc3cccc(c3)CNC(=O)CC(C(=O)O)NC(=O)[C@]3(C)CCCN3C2=O)cc1 (stereo partly shown) [Compound 401] ([NHCH2(1,3-C6H4)CH2CO][dA][Trp(5-F)][Trp(5-F)]DHY(Me)[αMeP][ξD]-OH; lactam N-9)")
"0.1 to 100 nM"
>>> experimental_result("C[C@@]12CCCN1C(=O)[C@H](Cc1ccc(O)cc1)NC(=O)[C@H]1CS[C@H]3CC[C@H](NC(=O)[C@H](Cc4c[nH]c5ccc(F)cc45)NC(=O)[C@H](Cc4c[nH]c5ccc(F)cc45)NC(=O)CNC(=O)[C@H](CCCCN)NC(=O)CCSCc4cccc(c4)CSC[C@@H](C(N)=O)NC2=O)C(=O)N31")
"500 to 5000 nM"
>>> experimental_result("C[C@@]12CCCN1C(=O)[C@H](Cc1ccc(O)cc1)NC(=O)N[C@@H]1CCCc3ccc(cc31)C(=O)[C@H](Cc1c[nH]c3ccc(F)cc13)NC(=O)[C@H](Cc1c[nH]c3ccc(F)cc13)NC(=O)CNC(=O)[C@H](CCCCN)NC(=O)CCSCc1cccc(c1)CSC[C@@H](C(N)=O)NC2=O")
"100 to 500 nM"
>>> experimental_result("COc1ccc(C[C@@H]2NC(=O)[C@H]([C@@H](C)O)NC(=O)[C@@H]3C[C@H](F)CN3C(=O)[C@H](Cc3c[nH]c4ccc(F)cc34)NC(=O)[C@H](Cc3c[nH]c4ccc(F)cc34)NC(=O)[C@@H](C)NC(=O)[C@H](CCCCN)NC(=O)[C@@H](NC(C)=O)CCCCCc3ccc(cc3)C[C@@H](C(N)=O)NC(=O)[C@]3(C)CCCN3C2=O)cc1")
"500 to 5000 nM"
>>> experimental_result("NC(=O)[C@@H]1Cc2cccc(c2)CNC(=O)CCCC(=O)NCC(=O)N[C@@H](Cc2c[nH]c3ccc(F)cc23)C(=O)N[C@@H](Cc2c[nH]c3ccc(F)cc23)C(=O)N[C@@H](CC(=O)O)C(=O)N[C@@H](Cc2ncc[nH]2)C(=O)N[C@@H](Cc2ccc(O)cc2)C(=O)N1 [Compound 458] (G[Trp(5-F)][Trp(5-F)]D[Ala(imidazol-2-yl)]Y[Phe(3-CH2NH2)]-NH2; linker N-7 via Glutaryl)")
"500 to 5000 nM"
>>> experimental_result("C[C@@]12CCCN1C(=O)[C@H](Cc1ccc(O)cc1)NC(=O)[C@H](Cc1c[nH]cn1)NC(=O)[C@H](CC(=O)O)NC(=O)[C@H](Cc1c[nH]c3ccc(F)cc13)NC(=O)[C@H](Cc1c[nH]c3ccc(F)cc13)NC(=O)CNC(=O)[C@H](CCCCN)NC(=O)CCSCc1cc(Cl)cc(c1)CSC[C@@H](C(N)=O)NC2=O [Compound 358] ([Mpa]KG[Trp(5-F)][Trp(5-F)]DHY[αMeP]C-NH2; linker 1-10 via X8)")
"100 to 500 nM"
>>> experimental_result("COc1ccc(C[C@@H]2NC(=O)[C@H]([C@@H](C)O)NC(=O)[C@@H]3C[C@H](F)CN3C(=O)[C@H](Cc3c[nH]c4ccc(F)cc34)NC(=O)[C@H](Cc3c[nH]c4ccc(F)cc34)NC(=O)[C@@H](C)NC(=O)[C@H](CCCCN)NC(=O)[C@@H](NC(=O)CC(F)(F)F)CC(=O)NCCOc3ccc(cc3)C[C@@H](C(N)=O)NC(=O)[C@]3(C)CCCN3C2=O)cc1 [Compound 114] ({Propanoyl(3,3,3-F3)}-DK[dA][Trp(5-F)][Trp(5-F)][Pro(cis-4-F)]TY(Me)[αMeP][AEF]-NH2; lactam 1-10)")
"500 to 5000 nM"
>>> experimental_result("NC(=O)[C@@H]1Cc2cccc(c2)CNC(=O)CCCCC(=O)NCC(=O)N[C@@H](Cc2c[nH]c3ccc(F)cc23)C(=O)N[C@@H](Cc2c[nH]c3ccc(F)cc23)C(=O)N[C@@H](CC(=O)O)C(=O)N[C@@H](Cc2cnc[nH]2)C(=O)N[C@@H](Cc2ccc(O)cc2)C(=O)N1 [Compound 457] (G[Trp(5-F)][Trp(5-F)]DHY[Phe(3-CH2NH2)]-NH2; linker N-7 via Adipoyl)")
"500 to 5000 nM"
>>> experimental_result("COc1ccc(C[C@@H]2NC(=O)[C@H](Cc3ccc(OC)cc3)NC(=O)[C@@H](CC(C)C)NC(=O)[C@H]([C@@H](C)OC)NC(=O)CCSCc3cccc(c3)CSC[C@@H](C(N)=O)NC(=O)[C@@H]3CCCN3C(=O)[C@H](Cc3ccc(OC)cc3)NC(=O)[C@H](Cc3ccc(OC)cc3)NC(=O)[C@H](CC(C)C)NC2=O)cc1 [Compound 034] ([Mpa]T(Me)[dL]Y(Me)Y(Me)LY(Me)Y(Me)PC-NH2; linker 1-10 via mXylylene)")
"0.1 to 100 nM"
